Recorded IC50 for the following compounds
system_name: p66/p51C280A mutant HIV-1 RNase H (Human immunodeficiency virus type 1 group M subtype B, UniProt P04585, C867A)
measurement_notes: RNase H inhibitor analysis, p66/p51 C280A mutant RT

compound: COc1ccc2nc(-c3ccc(O)c(O)c3)[nH]c(=O)c2c1 [Compound 4]
IC50, nM: 410
//
compound: O=c1[nH]c(-c2ccc(O)c(O)c2)nc2ccc(Cl)cc12 [Compound 10]
IC50, nM: 200
//
compound: O=c1[nH]c(-c2ccc(O)c(O)c2)nc2ccc([N+](=O)[O-])cc12 [Compound 13]
IC50, nM: 170
//
compound: O=c1[nH]c(-c2ccc(O)c(O)c2)nc2cc(Cl)ccc12 [Compound 11]
IC50, nM: 660
//
compound: O=c1[nH]c(-c2ccc(O)c(O)c2)nc2ccc(I)cc12 [Compound 8]
IC50, nM: 120
//
compound: O=c1[nH]c(-c2ccc(O)c(O)c2)nc2ccc(F)cc12 [Compound 12]
IC50, nM: 840
//
compound: O=c1[nH]c(-c2ccc(O)c(O)c2)nc2ncccc12 [Compound 16]
IC50, nM: 2000
//
compound: Oc1ccc(-c2ccc3ccccc3n2)cc1O [Compound 22, 4-(quinolin-2-yl)benzene-1,2-diol]
IC50, nM: 610
//
compound: COc1cc2nc(-c3ccc(O)c(O)c3)[nH]c(=O)c2cc1OC [Compound 5]
IC50, nM: 330
//
compound: O=c1[nH]c(-c2ccc(O)c(O)c2)nc2c1oc1ccccc12 [Compound 15]
IC50, nM: 390
//
compound: O=c1[nH]c(-c2ccc(O)c(O)c2)nc2ccc(Br)cc12 [Compound 9]
IC50, nM: 400
//
compound: O=c1[nH]c(-c2ccc(O)c(O)c2)nc2ccc(-c3ccccc3)cc12 [Compound 6]
IC50, nM: 290
//
compound: O=C1NC(c2ccc(O)c(O)c2)Nc2ccc(Cl)cc21 (stereo not shown) [Compound 14]
IC50, nM: 400
//
compound: Oc1ccc(-c2ccc3ccccc3c2)cc1O [Compound 23, 4-(naphthalen-2-yl)benzene-1,2-diol]
IC50, nM: 1200
//
compound: O=c1[nH]c(-c2ccc(O)c(O)c2)nc2cc3ccccc3cc12 [Compound 7]
IC50, nM: 510
//
compound: Cc1ccc2c(=O)[nH]c(-c3ccc(O)c(O)c3)nc2c1 [Compound 3]
IC50, nM: 230

----------
selectivity index (SI): recorded values
Tested on: HIV-1RF isolate in CEM-SS cells
measurement_notes: Antiviral activity, XTT-based cell viability assay
test_context: CC50/EC50, CEM-SS cells
Description: Antiviral activity of selected thienopyrimidinones was determined via the 2,3-bis[2-methoxy-4-nitro-5-sulfophenyl]-5-[(phenylamino)carbonyl]-2H tetrazolium hydroxide (XTT)-based cell viability assay of Weislow et al.[45], using the HIV-1RF isolate and human T-cell line CEM-SS.
reported_endpoint: selectivity index (SI)

item_smiles: O=c1[nH]c(-c2ccc(O)c(O)c2)nc2cc(Cl)ccc12
reported_endpoint: selectivity index (SI)
endpoint_result: 3

item_smiles: Oc1ccc(-c2ccc3ccccc3c2)cc1O
reported_endpoint: selectivity index (SI)
endpoint_result: 2

item_smiles: Cc1ccc2c(=O)[nH]c(-c3ccc(O)c(O)c3)nc2c1
reported_endpoint: selectivity index (SI)
endpoint_result: 2

item_smiles: O=c1[nH]c(-c2ccc(O)c(O)c2)nc2ccc(Cl)cc12
reported_endpoint: selectivity index (SI)
endpoint_result: 4

item_smiles: O=c1[nH]c(-c2ccc(O)c(O)c2)nc2ccc(I)cc12
reported_endpoint: selectivity index (SI)
endpoint_result: 2
